measured-target: PI3Kα (Homo sapiens)
Sequence (P42336 whole entry): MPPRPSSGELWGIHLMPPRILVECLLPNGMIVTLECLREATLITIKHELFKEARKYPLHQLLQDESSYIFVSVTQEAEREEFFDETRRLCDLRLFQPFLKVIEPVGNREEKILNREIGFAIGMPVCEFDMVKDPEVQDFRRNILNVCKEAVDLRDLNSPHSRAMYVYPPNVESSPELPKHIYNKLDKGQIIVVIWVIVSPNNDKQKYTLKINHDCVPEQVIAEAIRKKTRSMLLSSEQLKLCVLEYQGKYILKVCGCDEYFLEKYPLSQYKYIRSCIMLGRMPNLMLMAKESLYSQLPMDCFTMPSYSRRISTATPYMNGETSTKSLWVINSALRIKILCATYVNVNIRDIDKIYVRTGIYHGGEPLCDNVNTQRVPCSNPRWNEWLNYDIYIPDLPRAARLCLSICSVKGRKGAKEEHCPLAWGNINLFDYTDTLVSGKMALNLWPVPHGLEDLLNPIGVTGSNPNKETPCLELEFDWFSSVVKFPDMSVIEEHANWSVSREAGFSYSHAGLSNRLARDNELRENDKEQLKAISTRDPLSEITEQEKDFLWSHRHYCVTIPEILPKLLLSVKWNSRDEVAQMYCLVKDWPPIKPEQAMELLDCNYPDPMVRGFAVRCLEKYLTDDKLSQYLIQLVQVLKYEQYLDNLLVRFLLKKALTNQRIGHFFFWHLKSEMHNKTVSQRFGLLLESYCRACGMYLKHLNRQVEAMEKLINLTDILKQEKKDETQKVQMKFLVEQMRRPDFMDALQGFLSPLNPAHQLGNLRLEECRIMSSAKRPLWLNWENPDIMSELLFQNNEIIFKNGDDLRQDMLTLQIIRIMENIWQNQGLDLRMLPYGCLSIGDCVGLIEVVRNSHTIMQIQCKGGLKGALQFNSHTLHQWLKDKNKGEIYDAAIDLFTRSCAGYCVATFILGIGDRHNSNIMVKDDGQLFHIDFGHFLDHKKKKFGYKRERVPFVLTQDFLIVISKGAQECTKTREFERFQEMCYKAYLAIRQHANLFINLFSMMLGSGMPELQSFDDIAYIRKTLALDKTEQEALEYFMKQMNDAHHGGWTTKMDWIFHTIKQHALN
measured-quantity: IC50

So what's the measured IC50 for this one? COc1cccc2c1nc(C(F)F)n2-c1nc(N2CCOCC2)nc2c1ncn2C1CCOCC1
< 100 nM

* * *

measured-target: PI3Kδ (Homo sapiens, UniProt O00329)
Construct: purchased Ambit Biosciences; host or cells: E. coli BL21-derived host (T7 phage) or HEK-293
Sequence (O00329 whole entry): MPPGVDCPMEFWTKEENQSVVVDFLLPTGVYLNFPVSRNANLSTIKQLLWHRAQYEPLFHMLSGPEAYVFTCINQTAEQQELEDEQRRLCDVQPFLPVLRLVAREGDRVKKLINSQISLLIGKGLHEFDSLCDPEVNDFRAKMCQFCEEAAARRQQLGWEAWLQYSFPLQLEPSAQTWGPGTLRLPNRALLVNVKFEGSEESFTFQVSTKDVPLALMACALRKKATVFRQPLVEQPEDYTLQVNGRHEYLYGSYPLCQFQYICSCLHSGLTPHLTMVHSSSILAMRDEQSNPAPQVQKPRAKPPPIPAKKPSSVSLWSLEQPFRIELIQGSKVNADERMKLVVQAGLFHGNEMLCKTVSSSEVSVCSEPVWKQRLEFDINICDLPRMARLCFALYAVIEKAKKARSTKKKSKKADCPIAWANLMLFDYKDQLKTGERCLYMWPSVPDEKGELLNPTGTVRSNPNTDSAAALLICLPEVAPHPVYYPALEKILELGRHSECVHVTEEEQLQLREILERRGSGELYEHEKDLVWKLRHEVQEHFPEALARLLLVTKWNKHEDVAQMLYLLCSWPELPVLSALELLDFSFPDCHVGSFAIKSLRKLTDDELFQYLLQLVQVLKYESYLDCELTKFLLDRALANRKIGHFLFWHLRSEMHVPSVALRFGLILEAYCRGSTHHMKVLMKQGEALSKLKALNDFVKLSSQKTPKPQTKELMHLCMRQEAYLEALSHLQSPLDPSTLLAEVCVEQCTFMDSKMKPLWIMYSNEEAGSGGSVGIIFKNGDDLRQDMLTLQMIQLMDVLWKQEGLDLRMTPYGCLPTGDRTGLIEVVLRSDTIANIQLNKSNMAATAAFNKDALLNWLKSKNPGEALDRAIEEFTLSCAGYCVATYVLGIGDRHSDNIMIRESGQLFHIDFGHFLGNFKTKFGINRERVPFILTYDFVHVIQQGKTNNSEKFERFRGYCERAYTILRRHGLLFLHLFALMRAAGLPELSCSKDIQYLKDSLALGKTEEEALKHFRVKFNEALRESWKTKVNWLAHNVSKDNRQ
experimental-details: Kinase binding assay (kinase-tagged T7 phage / qPCR, Ambit Biosciences)
measured-quantity: IC50

// lookup IC50 for OCCn1cnc2c(-n3c(C(F)F)nc4ccccc43)nc(N3CCOCC3)nc21
< 0.1 µM
